Source: patent US20020065227A1

- System: AGTACT
- EXPERIMENT: DNase I footprint titration, AGTACT site
- Assay type: binding
- EXPERIMENTAL_PARAMETERS: equilibrium association constant Ka; pH 7.0, 22° C.
Measured Binding Constant, sequence AGTACT of individual entries
MEASUREMENT_KIND: Binding Constant, sequence AGTACT (M⁻¹)

{"STRUCTURE_AS_SMILES": "CN(C)CCCNC(=O)CCNC(=O)c1cc(NC(=O)c2cc(NC(=O)c3cc(NC(=O)c4nsc(Cl)c4Cl)cn3C)cn2C)cn1C", "EXPERIMENTAL_TARGET": "AGTACT", "OBSERVED_VALUE": "1e+11"}
{"STRUCTURE_AS_SMILES": "CN(C)CCCNC(=O)CCNC(=O)c1cc(NC(=O)c2cc(NC(=O)c3cc(NC(=O)c4nc(NC(=O)CCCNC(=O)c5cc(NC(=O)c6cc(NC(=O)c7nsc(Cl)c7Cl)cn6C)cn5C)cn4C)cn3C)cn2C)cn1C", "EXPERIMENTAL_TARGET": "AGTACT", "OBSERVED_VALUE": "2e+08"}
{"STRUCTURE_AS_SMILES": "CN(C)CCCNC(=O)c1cc(NC(=O)c2cc(NC(=O)c3cc(NC(=O)c4nsc(NCCCN)c4Cl)cn3C)cn2C)cn1C", "EXPERIMENTAL_TARGET": "AGTACT", "OBSERVED_VALUE": "3e+09"}
